B1: TPD52L1 (parent)
chain: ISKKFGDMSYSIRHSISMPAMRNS

variants of: B1; test: protein stability index of a GFP-peptide fusion (GPS, HEK-293T) (PSI 1-6); higher = more stable; settings: c terminus: a fixed tail appended;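 also: lentivirally expressed fusions sorted by FACS into six bins by GFP to DsRed ratio, PSI derived from sequencing read proportions per bin multiplied by bin number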
Assign class by protein stability index: not lower than 2 means yes (1); lower than 2 means no (0).

Query :: Can "K3N" be said to have protein stability index at or above 2?
Result :: yes (1)

Query :: Can "I16Q" be said to have protein stability index at or above 2?
Result :: yes (1)

Query :: Can "M21N" be said to have protein stability index at or above 2?
Result :: yes (1)

Query :: Can "F5Y" be said to have protein stability index at or above 2?
Result :: yes (1)

Query :: Can "S15I" be said to have protein stability index at or above 2?
Result :: no (0)

Query :: Can "K3M" be said to have protein stability index at or above 2?
Result :: yes (1)

Query :: Can "D7H" be said to have protein stability index at or above 2?
Result :: no (0)

Query :: Can "R22I" be said to have protein stability index at or above 2?
Result :: no (0)

Query :: Can "I1H" be said to have protein stability index at or above 2?
Result :: yes (1)

Query :: Can "R22V" be said to have protein stability index at or above 2?
Result :: no (0)

Query :: Can "I16T" be said to have protein stability index at or above 2?
Result :: yes (1)

Query :: Can "F5W" be said to have protein stability index at or above 2?
Result :: yes (1)

Query :: Can "H14A" be said to have protein stability index at or above 2?
Result :: yes (1)

Query :: Can "Y10R" be said to have protein stability index at or above 2?
Result :: yes (1)

Query :: Can "H14Y" be said to have protein stability index at or above 2?
Result :: no (0)

Query :: Can "H14R" be said to have protein stability index at or above 2?
Result :: yes (1)

Query :: Can "S11A" be said to have protein stability index at or above 2?
Result :: yes (1)

Query :: Can "K3Y" be said to have protein stability index at or above 2?
Result :: yes (1)

Query :: Can "M18D" be said to have protein stability index at or above 2?
Result :: yes (1)

Query :: Can "I12F" be said to have protein stability index at or above 2?
Result :: yes (1)

Query :: Can "Y10I" be said to have protein stability index at or above 2?
Result :: yes (1)

Query :: Can "A20Q" be said to have protein stability index at or above 2?
Result :: yes (1)

Query :: Can "S17T" be said to have protein stability index at or above 2?
Result :: yes (1)

Query :: Can "S9H" be said to have protein stability index at or above 2?
Result :: yes (1)

Query :: Can "F5R" be said to have protein stability index at or above 2?
Result :: yes (1)

Query :: Can "S2F" be said to have protein stability index at or above 2?
Result :: no (0)

Query :: Can "K3V" be said to have protein stability index at or above 2?
Result :: yes (1)

Query :: Can "S17E" be said to have protein stability index at or above 2?
Result :: yes (1)

Query :: Can "D7V" be said to have protein stability index at or above 2?
Result :: no (0)

Query :: Can "K3E" be said to have protein stability index at or above 2?
Result :: yes (1)

Query :: Can "S17H" be said to have protein stability index at or above 2?
Result :: yes (1)

Query :: Can "P19C" be said to have protein stability index at or above 2?
Result :: no (0)

Query :: Can "K4A" be said to have protein stability index at or above 2?
Result :: yes (1)

Query :: Can "I16P" be said to have protein stability index at or above 2?
Result :: yes (1)

Query :: Can "H14L" be said to have protein stability index at or above 2?
Result :: yes (1)

Query :: Can "M18W" be said to have protein stability index at or above 2?
Result :: no (0)

Query :: Can "I16A" be said to have protein stability index at or above 2?
Result :: yes (1)

Query :: Can "S15Y" be said to have protein stability index at or above 2?
Result :: no (0)

Query :: Can "I12N" be said to have protein stability index at or above 2?
Result :: yes (1)

Query :: Can "S15C" be said to have protein stability index at or above 2?
Result :: yes (1)

Query :: Can "F5A" be said to have protein stability index at or above 2?
Result :: yes (1)

Query :: Can "R13A" be said to have protein stability index at or above 2?
Result :: yes (1)

Query :: Can "K3C" be said to have protein stability index at or above 2?
Result :: yes (1)

Query :: Can "S15L" be said to have protein stability index at or above 2?
Result :: no (0)

Query :: Can "S11R" be said to have protein stability index at or above 2?
Result :: yes (1)

Query :: Can "M18G" be said to have protein stability index at or above 2?
Result :: yes (1)

Query :: Can "M18H" be said to have protein stability index at or above 2?
Result :: yes (1)

Query :: Can "I1M" be said to have protein stability index at or above 2?
Result :: yes (1)

Query :: Can "S15Q" be said to have protein stability index at or above 2?
Result :: yes (1)

Query :: Can "I1N" be said to have protein stability index at or above 2?
Result :: yes (1)

Query :: Can "M8F" be said to have protein stability index at or above 2?
Result :: yes (1)

Query :: Can "M18Y" be said to have protein stability index at or above 2?
Result :: no (0)

Query :: Can "N23G" be said to have protein stability index at or above 2?
Result :: yes (1)

Query :: Can "A20D" be said to have protein stability index at or above 2?
Result :: yes (1)

Query :: Can "Y10T" be said to have protein stability index at or above 2?
Result :: yes (1)

Query :: Can "P19Y" be said to have protein stability index at or above 2?
Result :: no (0)

Query :: Can "N23D" be said to have protein stability index at or above 2?
Result :: yes (1)

Query :: Can "S24Q" be said to have protein stability index at or above 2?
Result :: no (0)

Query :: Can "M8S" be said to have protein stability index at or above 2?
Result :: yes (1)

Query :: Can "K3S" be said to have protein stability index at or above 2?
Result :: yes (1)

Query :: Can "I16F" be said to have protein stability index at or above 2?
Result :: no (0)

Query :: Can "S11N" be said to have protein stability index at or above 2?
Result :: yes (1)

Query :: Can "D7F" be said to have protein stability index at or above 2?
Result :: no (0)

Query :: Can "N23E" be said to have protein stability index at or above 2?
Result :: yes (1)

Query :: Can "S2L" be said to have protein stability index at or above 2?
Result :: yes (1)

Query :: Can "K3A" be said to have protein stability index at or above 2?
Result :: no (0)

Query :: Can "S24N" be said to have protein stability index at or above 2?
Result :: yes (1)

Query :: Can "S11C" be said to have protein stability index at or above 2?
Result :: no (0)

Query :: Can "G6Y" be said to have protein stability index at or above 2?
Result :: no (0)

Query :: Can "R22M" be said to have protein stability index at or above 2?
Result :: yes (1)

Query :: Can "S11L" be said to have protein stability index at or above 2?
Result :: yes (1)

Query :: Can "S15A" be said to have protein stability index at or above 2?
Result :: yes (1)

Query :: Can "S24R" be said to have protein stability index at or above 2?
Result :: yes (1)

Query :: Can "S24M" be said to have protein stability index at or above 2?
Result :: no (0)

Query :: Can "F5M" be said to have protein stability index at or above 2?
Result :: yes (1)

Query :: Can "A20K" be said to have protein stability index at or above 2?
Result :: yes (1)

Query :: Can "S2Y" be said to have protein stability index at or above 2?
Result :: no (0)

Query :: Can "K3T" be said to have protein stability index at or above 2?
Result :: yes (1)

Query :: Can "M21D" be said to have protein stability index at or above 2?
Result :: yes (1)

Every entry's value here was drawn from the supplement of paper PMC10567573.
